Target: hCRTH2 receptor (Homo sapiens, UniProt Q9Y5Y4)
Construct: expressed in transfected cells; host or cells: HEK293
Sequence (Q9Y5Y4 1-395): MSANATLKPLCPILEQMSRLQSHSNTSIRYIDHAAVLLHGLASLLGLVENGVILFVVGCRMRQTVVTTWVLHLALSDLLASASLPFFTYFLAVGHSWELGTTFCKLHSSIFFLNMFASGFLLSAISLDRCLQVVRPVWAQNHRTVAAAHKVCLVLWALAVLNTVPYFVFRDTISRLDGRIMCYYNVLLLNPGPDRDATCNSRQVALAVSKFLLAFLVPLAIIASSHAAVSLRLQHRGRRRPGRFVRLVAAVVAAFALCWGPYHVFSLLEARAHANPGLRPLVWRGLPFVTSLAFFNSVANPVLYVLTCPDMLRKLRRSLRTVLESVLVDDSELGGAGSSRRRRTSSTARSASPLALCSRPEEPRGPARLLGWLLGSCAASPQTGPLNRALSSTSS
Assay: Radioligand displacement assay (3H-PGD2) on hCRTH2 receptor membranes
Format: binding
Conditions: radioligand displacement (3H-PGD2), hCRTH2 receptor membranes; antagonistic activity
pIC50: −log10 of the molar value.
Give true when the value for pIC50 is at least 8. Give false when it is less.

Exercise: State whether the measured pIC50 reaches 8, counting equality as reaching it, for O=C(O)COc1ccc(Cl)cc1[C@@H]1c2ccccc2CCN1C(=O)[C@@H]1C[C@H]1c1cccc(F)c1
Solution: true

Exercise: State whether the measured pIC50 reaches 8, counting equality as reaching it, for O=C(COc1ccc(Cl)cc1[C@@H]1c2ccccc2CCN1C(=O)OCc1ccccc1)NO
Solution: false

Exercise: State whether the measured pIC50 reaches 8, counting equality as reaching it, for O=C(O)COc1ccc(Cl)cc1[C@@H]1c2ccccc2CCN1C(=O)[C@@H]1C[C@H]1c1ccc(F)cc1
Solution: true

Exercise: State whether the measured pIC50 reaches 8, counting equality as reaching it, for Cc1ccccc1[C@H]1C[C@@H]1C(=O)N1CCc2ccccc2[C@H]1c1cc(Cl)ccc1OCC(=O)O
Solution: false

Exercise: State whether the measured pIC50 reaches 8, counting equality as reaching it, for O=C(O)COc1ccc(Cl)cc1[C@@H]1c2ccccc2CCN1C(=O)[C@@H]1C[C@H]1c1ccccc1C(F)(F)F
Solution: true

Exercise: State whether the measured pIC50 reaches 8, counting equality as reaching it, for O=C(OCc1ccccc1)N1CCc2ccccc2C1c1cc(Cl)ccc1OCc1noc(=O)[nH]1 (racemic)
Solution: false

Exercise: State whether the measured pIC50 reaches 8, counting equality as reaching it, for N#CNC(=O)COc1ccc(Cl)cc1[C@@H]1c2ccccc2CCN1C(=O)OCc1ccccc1
Solution: false

Reference for the values: patent US8575158B2
